Cited source: paper PMC8333620

System: A375 (a human melanoma) cell line
experimentDescription: MTT cytotoxicity assay, A375
Format: cell-based
condition: Homo sapiens, A-375, 48 h, read-out: Cytotoxicity (IC50 ± SEM) against A375
Description: In this study, A375 (a human melanoma), HT29 (a human colon adenocarcinoma), and HFF (a human foreskin fibroblast) cell lines were provided from the Pasteur Institute (Iran). […] 10 mM stock solutions of compounds were prepared in DMSO and diluted in a fresh medium for use. The final concentration of DMSO never exceeded 0.1% (v/v). […] Finally, the violet crystal was solubilized in 100 μL DMSO and the absorbance was measured at 570 nm. IC50 value was measured by the standard method. […]
endpointLabel: IC50 (µM)
Numbers only, in µM.

# input What value of IC50 has been reported for the following molecule? O=C(O)c1cccc(C(=O)O)n1
# output 443

* * *

experimentDescription: MTT cytotoxicity assay, HFF
Assay type: cell-based, human
condition: human
endpointLabel: IC50 at 48 h

# input Query: IC50 at 48 h; subject: Nc1nc2ccccc2[nH]1
# output > 500 µM

* * *

Test system: A375 (a human melanoma) cell line
experimentDescription: MTT cytotoxicity assay, A375
Format: cell-based
condition: MTT, 48 h; read-out: Cytotoxicity (IC50 ± SEM) against A375
endpointLabel: pIC50
One number for each entry, as −log10 of the molar value.

# input So what's the measured pIC50 for this one? O=C1[O][Pt]2([NH][C@@H]3CCCC[C@H]3[NH]2)[O]C1=O [Oxaliplatin, reference compound]
# output 3.48

* * *

Test system: HT29 (a human colon adenocarcinoma) cell line
experimentDescription: MTT cytotoxicity assay, HT29
Format: cell-based
condition: MTT, 48 h; read-out: Cytotoxicity (IC50 ± SEM) against HT29
endpointLabel: IC50 (µM)
One number for each entry, in µM.

# input For the compound shown here, O=C1[O][Pt]2([NH][C@@H]3CCCC[C@H]3[NH]2)[O]C1=O [Oxaliplatin, reference compound] , give the reported IC50.
# output 323

* * *

Test system: HT29 (a human colon adenocarcinoma) cell line
experimentDescription: MTT cytotoxicity assay, HT29
Format: cell-based
condition: Homo sapiens, HT-29, 48 h, read-out: Cytotoxicity (IC50 ± SEM) against HT29
endpointLabel: pIC50
One number for each entry, as −log10 of the molar value.

# input Fill in: pIC50 of O=C(O)c1cccc(C(=O)O)n1 is ___
# output 3.37
